Ref: paper PMC9833666

Please go through the items and note down their hemolysis.
Test system: Single-donor human red blood cells
assay: Hemolysis assay
Format: cell-based
Experimental: Single-donor human red blood cells (Innovative Research, no. IWB3ALS) were washed in PBS and adjusted to a concentration of 1 × 10^9 cells/ml. […] Percent hemolysis for each sample was determined by normalizing the absorbance at 540 nm for each sample to the average background and dividing by the average absorbance for 1% Triton X-100 (100% hemolysis). […]
Bridge positions count the residues as written; N and C are the ends. Ends that are not written are not given here.
Unit % implied. Number only.

Task: Tell me measured hemolysis for CLTIRVDNRGSRVRITLEVC (disulfide 1-20 (inferred)) [SySA-70] please.
Output: 0.92

Task: Kindly indicate its recorded hemolysis. Item: CRIKVDINNRSGRVKLQVQC (disulfide 1-20 (inferred)) [SySA-20]
Output: 0.42

Task: Provide measured hemolysis value, entry: CRIRVNINNRRRTLRLEVEC (disulfide 1-20 (inferred)) [SySA-35]
Output: 0.12

Task: Given CVTVRVNNRGGRLKVSVEVC (disulfide 1-20 (inferred)) [SySA-56] , respond with its hemolysis.
Output: 0.19

Task: Supply measured hemolysis of CLRVRVNNRRSGVRVTLEVC (disulfide 1-20 (inferred)) [SySA-67] in your reply.
Output: 0.70

Task: Identify hemolysis associated with the sequence CRIRIDVNNGSGRLKLQLEC (disulfide 1-20 (inferred)) [SySA-21]
Output: 0.42

Task: Determine its reported hemolysis: CRVRININNRSRTLKLELEC (disulfide 1-20 (inferred)) [SySA-68]
Output: 0.47

Task: Please give measured hemolysis of the following entry: CRVRVNINNGSGRVKLELEC (disulfide 1-20 (inferred)) [SySA-19]
Output: 0.33

Task: Assign hemolysis to the following record: CLRIRLNNRGRGVKVSVEVC (disulfide 1-20 (inferred)) [SySA-46]
Output: 0.47

Task: Give reported hemolysis value for CLRIRVNNRGSGLRISVEVC (disulfide 1-20 (inferred)) [SySA-22]
Output: 0.48

Task: Please give measured hemolysis of the following entry: CVTIRLNDGGSGLKISLQVC (disulfide 1-20 (inferred)) [SySA-23]
Output: -0.03

Task: Please report the measured hemolysis for CRIRINVNNGSGRVRLELEC (disulfide 1-20 (inferred)) [SySA-77]
Output: 0.32

Task: Using known records, supply hemolysis for CLTVRLNNRGGGVKISVEVC (disulfide 1-20 (inferred)) [SySA-59]
Output: 0.32

Task: Answer with the recorded hemolysis for the sequence listed here: CRVRVNINNRGGTVKLQLQC (disulfide 1-20 (inferred)) [SySA-13]
Output: 0.91

Task: Hello, please tell me recorded hemolysis for this one: CLTVRVNNRRSGVRVSVQVC (disulfide 1-20 (inferred)) [SySA-43]
Output: 0.11

Task: Respond only with hemolysis recorded for CLRVRVDNGGSRLKITLEVC (disulfide 1-20 (inferred)) [SySA-75]
Output: 2.18

Task: Output hemolysis of CRIRININNRRGRLKLQVEC (disulfide 1-20 (inferred)) [SySA-76]
Output: 0.27

Task: Supply measured hemolysis of CRVRIDIDNRSRTLKLEVQC (disulfide 1-20 (inferred)) [SySA-64] in your reply.
Output: 0.70

Task: Look up and report measured hemolysis for this entry: CLTVRVDNRGSRLKVTVEVC (disulfide 1-20 (inferred)) [SySA-55]
Output: -0.10
